Each item that follows carries a reported IC50.
- tested-system: Angiotensin-converting enzyme (Rattus norvegicus)
- Sequence (P47820 whole entry): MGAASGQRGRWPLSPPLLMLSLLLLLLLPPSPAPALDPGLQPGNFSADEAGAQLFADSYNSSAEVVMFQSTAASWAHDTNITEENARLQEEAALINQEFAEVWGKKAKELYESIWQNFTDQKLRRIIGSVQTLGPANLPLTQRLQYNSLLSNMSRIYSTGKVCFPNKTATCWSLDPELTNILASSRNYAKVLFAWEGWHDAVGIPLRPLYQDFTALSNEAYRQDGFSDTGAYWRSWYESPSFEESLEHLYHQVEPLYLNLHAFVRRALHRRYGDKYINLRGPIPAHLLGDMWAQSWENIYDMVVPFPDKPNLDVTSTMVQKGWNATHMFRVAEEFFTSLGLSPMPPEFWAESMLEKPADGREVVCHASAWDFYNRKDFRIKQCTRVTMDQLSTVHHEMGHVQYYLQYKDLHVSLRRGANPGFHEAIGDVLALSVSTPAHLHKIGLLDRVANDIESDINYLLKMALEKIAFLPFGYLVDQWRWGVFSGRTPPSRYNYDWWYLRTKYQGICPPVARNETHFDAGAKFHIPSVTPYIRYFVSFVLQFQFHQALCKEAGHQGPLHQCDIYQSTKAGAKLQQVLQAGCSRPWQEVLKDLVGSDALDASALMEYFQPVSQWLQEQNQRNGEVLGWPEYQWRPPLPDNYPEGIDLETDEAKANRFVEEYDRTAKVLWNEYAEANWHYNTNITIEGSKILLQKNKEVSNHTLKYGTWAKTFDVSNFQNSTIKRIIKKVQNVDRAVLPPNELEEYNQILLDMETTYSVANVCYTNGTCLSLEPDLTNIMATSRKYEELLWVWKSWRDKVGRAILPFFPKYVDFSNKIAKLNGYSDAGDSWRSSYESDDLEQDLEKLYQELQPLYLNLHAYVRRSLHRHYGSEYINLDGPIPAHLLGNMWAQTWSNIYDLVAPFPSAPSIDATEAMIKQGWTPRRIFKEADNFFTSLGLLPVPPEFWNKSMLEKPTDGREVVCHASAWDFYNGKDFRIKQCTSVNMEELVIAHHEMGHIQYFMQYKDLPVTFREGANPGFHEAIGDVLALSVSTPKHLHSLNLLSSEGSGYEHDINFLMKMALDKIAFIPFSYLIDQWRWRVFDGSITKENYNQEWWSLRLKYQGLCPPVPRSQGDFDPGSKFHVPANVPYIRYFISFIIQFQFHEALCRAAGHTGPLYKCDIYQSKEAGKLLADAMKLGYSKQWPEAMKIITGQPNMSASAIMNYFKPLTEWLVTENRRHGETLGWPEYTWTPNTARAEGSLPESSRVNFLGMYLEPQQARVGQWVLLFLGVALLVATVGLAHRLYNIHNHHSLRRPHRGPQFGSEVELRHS
- protocol-summary: In vitro inhibitory activity against Angiotensin I converting enzyme(ACE)
assay-endpoint: IC50 (µM)

- molecule: "Cl.NCCCC[C@H](N[C@@H](CCc1ccccc1)C(=O)O)C(=O)N(CC(=O)O)CC1Nc2cc(Cl)c(S(N)(=O)=O)cc2S(=O)(=O)N1 (stereo partly specified)"
  reading: 0.22
- molecule: "C[C@H](N[C@@H](CCc1ccccc1)C(=O)O)C(=O)N(CCCC1Nc2cc(Cl)c(S(N)(=O)=O)cc2S(=O)(=O)N1)CC(=O)O.Cl (stereo partly specified)"
  reading: 0.23
- molecule: "CCOC(=O)c1cc(S(N)(=O)=O)c(Cl)cc1NCCCC[C@H](C(=O)O)N(Cc1ccccc1)C(=O)[C@H](C)N[C@@H](CCc1ccccc1)C(=O)OCC.Cl"
  reading: 28
- molecule: "C[C@H](N[C@@H](CCc1ccccc1)C(=O)O)C(=O)N(CC(=O)O)CC(=O)Nc1cc(C(=O)O)cc(S(N)(=O)=O)c1Cl.Cl"
  reading: 2.2
- molecule: "CCOC(=O)c1cc(S(N)(=O)=O)c(NCCCC[C@H](C(=O)O)N(Cc2ccccc2)C(=O)[C@H](C)N[C@@H](CCc2ccccc2)C(=O)OCC)cc1Cl.Cl"
  reading: 22
- molecule: "CCOC(=O)[C@H](CCc1ccccc1)N[C@@H](C)C(=O)N(CC(=O)O)Cc1cc(C(C)(C)C)cc(I)c1O"
  reading: 80

----------
- tested-system: Angiotensin-converting enzyme (Rattus norvegicus)
- protocol-summary: In vitro inhibitory activity against Angiotensin I converting enzyme (ACE)
assay-endpoint: IC50 (nM)

- compound: "C[C@H](N[C@@H](CCc1ccccc1)C(=O)O)C(=O)N(CCCNC(=O)c1ccc(Cl)c(S(N)(=O)=O)c1)CC(=O)O"
  reading: 38000
- compound: "NS(=O)(=O)c1cc2c(cc1Cl)NC(CN(CC(=O)O)C(=O)[C@H](CCCCNC(=O)OCc1ccccc1)N[C@@H](CCc1ccccc1)C(=O)O)NS2(=O)=O (stereo partly specified)"
  reading: 240
- compound: "CCOC(=O)[C@H](CCc1ccccc1)N[C@@H](CCCCNC(=O)c1ccc(Cl)c(S(N)(=O)=O)c1)C(=O)N(CC(=O)O)C1Cc2ccccc2C1.Cl"
  reading: 40
- compound: "CCOC(=O)[C@H](CCc1ccccc1)N[C@@H](CCCCNC(=O)c1ccc(Cl)c(S(N)(=O)=O)c1)C(=O)N1CCC[C@H]1C(=O)O.Cl"
  reading: 15000
- compound: "Cl.NS(=O)(=O)c1cc(C(=O)NCCCC[C@H](N[C@@H](CCc2ccccc2)C(=O)O)C(=O)N(CC(=O)O)C2Cc3ccccc3C2)ccc1Cl"
  reading: 7
- compound: "Cl.NS(=O)(=O)c1cc(C(=O)NCCCC[C@H](N[C@@H](CCc2ccccc2)C(=O)O)C(=O)N2CCC[C@H]2C(=O)O)ccc1Cl"
  reading: 6.5

----------
- tested-system: UniProt P47820
- protocol-summary: Inhibition of Angiotensin I converting enzyme(ACE) at the dose of 100 mg/kg (po) in rat
- Type: organism-based
- Design: dose 100 mg/kg

- compound: "CCOC(=O)[C@H](CCc1ccccc1)N[C@@H](CCCCNC(=O)c1ccc(Cl)c(S(N)(=O)=O)c1)C(=O)N(CC(=O)O)C1Cc2ccccc2C1.Cl"
  ACE inhibition (%): 100
- compound: "C[C@H](N[C@@H](CCc1ccccc1)C(=O)O)C(=O)N(CC(=O)O)CC1Nc2cc(Cl)c(S(N)(=O)=O)cc2S(=O)(=O)N1 (stereo partly drawn)"
  ACE inhibition (%): 80
- compound: "CCOC(=O)c1cc(S(N)(=O)=O)c(Cl)cc1NCCCC[C@H](C(=O)O)N(Cc1ccccc1)C(=O)[C@H](C)N[C@@H](CCc1ccccc1)C(=O)OCC.Cl"
  ACE inhibition (%): 80

From: ChEMBL document CHEMBL1124789
